All values here come from paper PMC8262325.

- test.system: recombinant PPP1CA (PPP1C) (Homo sapiens, UniProt P62136)
- Construct: made in house; host or cells: E. coli BL-21
- Sequence (P62136 whole entry): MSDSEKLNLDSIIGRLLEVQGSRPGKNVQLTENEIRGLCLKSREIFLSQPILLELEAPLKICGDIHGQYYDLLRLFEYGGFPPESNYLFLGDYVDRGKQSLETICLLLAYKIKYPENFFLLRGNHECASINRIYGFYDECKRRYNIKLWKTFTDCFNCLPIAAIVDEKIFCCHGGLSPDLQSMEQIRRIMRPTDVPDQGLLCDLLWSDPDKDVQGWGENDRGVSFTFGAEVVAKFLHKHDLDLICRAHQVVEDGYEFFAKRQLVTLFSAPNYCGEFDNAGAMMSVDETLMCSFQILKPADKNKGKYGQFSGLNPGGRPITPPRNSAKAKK
- test: Phosphatase activity inhibition assay (DiFMUP or [32P]-phosphohistone substrate)
- Assay type: biochemical
- test.settings: 2 established assays with different substrates; read-out: IC50 for inhibition of PPP1C
measured.quantity: IC50

Field IC50 (entry CN1CCN(C(=O)C2C3CCC(O3)C2C(=O)O)CC1 (stereo not shown) ) reads < 2000 nM

###

- test.system: recombinant PPP1CA (PPP1C) (Homo sapiens)
- Construct: made in house; host or cells: E. coli BL-21
- test: Phosphatase activity inhibition assay (DiFMUP or [32P]-phosphohistone substrate)
- Type: biochemical
- test.settings: substrate [32P]-labeled phosphohistone; read-out: Phosphatase IC50 mean ± SE, PPP1C
measured.quantity: IC50 (nM)
Unit nM implied. Number only.

Field IC50 (entry CN1CCN(C(=O)C2C3CCC(O3)C2C(=O)O)CC1 (stereo not shown) [LB-100] ) reads 1680

###

- test.system: recombinant PPP1CA (PPP1C) (Homo sapiens)
- Construct: made in house; host or cells: E. coli BL-21
- test: Phosphatase activity inhibition assay (DiFMUP or [32P]-phosphohistone substrate)
- Format: biochemical
- test.settings: substrate DiFMUP; read-out: Phosphatase IC50 mean ± SE, PPP1C
measured.quantity: pIC50
The value called pIC50 is obtained by taking minus log10 of the concentration in mol/L.

Field pIC50 (entry CN1CCN(C(=O)C2C3CCC(O3)C2C(=O)O)CC1 (stereo not shown) ) reads 5.74
